For each entry below, report its Kd value.
Subject of test: hPD-L1-eGFP (Homo sapiens)
Sequence (Q9NZQ7 19-290): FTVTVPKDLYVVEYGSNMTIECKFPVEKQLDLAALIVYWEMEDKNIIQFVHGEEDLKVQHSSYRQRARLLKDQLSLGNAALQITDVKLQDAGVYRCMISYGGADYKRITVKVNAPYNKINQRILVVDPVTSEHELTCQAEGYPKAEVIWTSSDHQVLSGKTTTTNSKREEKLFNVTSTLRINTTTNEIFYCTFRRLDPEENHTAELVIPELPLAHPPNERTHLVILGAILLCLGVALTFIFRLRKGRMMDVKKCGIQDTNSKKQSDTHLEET
Test summary: Microscale thermophoresis (MST) PD-L1 binding assay
Assay conditions: CHO-K1 cell lysate, hPD-L1-eGFP 35 nM, PBS-T buffer (0.05% Tween 20)
Dear colleague, please return just the value in µM, with no unit written.

Provide the documented Kd with hPD-L1-eGFP (Homo sapiens) as the system for COc1ccc(C2=NN(c3ccc(Cl)cc3Cl)C(=O)C2)cc1 [ALIPX05]
68

Provide the documented Kd with hPD-L1-eGFP (Homo sapiens) as the system for COc1ccc(C2=NN(c3ccc(OC)cc3)C(=O)C2)cc1 [ALIPD24]
0.375

Provide the documented Kd with hPD-L1-eGFP (Homo sapiens) as the system for O=C1CC(C23CC4CC(CC(C4)C2)C3)=NN1c1ccccn1 [ALIPX57]
0.34

Provide the documented Kd with hPD-L1-eGFP (Homo sapiens) as the system for O=C1CC(c2ccc([N+](=O)[O-])cc2)=NN1c1ccc(Cl)cc1Cl [ALIPD33]
72

Provide the documented Kd with hPD-L1-eGFP (Homo sapiens) as the system for COc1ccc(C2=NN(c3cc(Cl)ccc3Cl)C(=O)C2)cc1
8

====

Subject of test: interaction between PD-1 and PD-L1 (Homo sapiens)
Test summary: FRET assay (PD-1-YFP / SHP-2-CFP in CHO-K1 cells, activation with PD-L1)
Assay conditions: co-transfected PD-1-SHP2 CHO-K1 cells, after addition of PD-L1 (10 µM)
For each entry below, report its pIC50 value.
The scale used: pIC50 is minus the common logarithm of the concentration in molar units.

Provide the documented pIC50 with interaction between PD-1 and PD-L1 (Homo sapiens) as the system for O=C1CC(C23CC4CC(CC(C4)C2)C3)=NN1c1cc(Cl)cc(Cl)c1
6.11

Provide the documented pIC50 with interaction between PD-1 and PD-L1 (Homo sapiens) as the system for COc1ccc(C2=NN(c3ccc(OC)cc3)C(=O)C2)cc1
6.64

Provide the documented pIC50 with interaction between PD-1 and PD-L1 (Homo sapiens) as the system for O=C1CC(C2CCCCCC2)=NN1c1ccc(Cl)cc1Cl
4.17

Provide the documented pIC50 with interaction between PD-1 and PD-L1 (Homo sapiens) as the system for O=C1CC(c2ccc(Cl)cc2Cl)=NN1c1ccccn1
7.01

Provide the documented pIC50 with interaction between PD-1 and PD-L1 (Homo sapiens) as the system for O=C1CC(c2cccc(C(F)(F)F)c2)=NN1c1ccccn1
5.96

====

Subject of test: interaction between PD-1 and PD-L1 (Homo sapiens, UniProt Q9NZQ7)
Sequence (Q9NZQ7 19-238 limits assumed): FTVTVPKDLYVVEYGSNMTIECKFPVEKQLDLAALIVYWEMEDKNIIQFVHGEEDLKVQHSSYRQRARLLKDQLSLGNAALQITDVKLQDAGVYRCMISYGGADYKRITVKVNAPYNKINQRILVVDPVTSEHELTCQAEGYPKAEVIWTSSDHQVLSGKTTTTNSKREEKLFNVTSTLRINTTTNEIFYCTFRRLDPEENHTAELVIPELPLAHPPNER
Test summary: FRET assay (PD-1-YFP / SHP-2-CFP in CHO-K1 cells, activation with PD-L1)
Assay conditions: co-transfected PD-1-SHP2 CHO-K1 cells, after addition of PD-L1 (10 µM)
Readout type: pIC50
The scale used: pIC50 is minus the common logarithm of the concentration in molar units.

For the molecule shown here, COc1ccc(C2=NN(c3cc(Cl)cc(Cl)c3)C(=O)C2)cc1 , give the reported pIC50.
4.82

For the molecule shown here, O=C1CC(c2ccc(Cl)cc2)=NN1c1ccccn1 , give the reported pIC50.
4.48

For the molecule shown here, O=C1CC(C23CC4CC(CC(C4)C2)C3)=NN1c1ccccn1 , give the reported pIC50.
8.40

For the molecule shown here, COc1ccc(C2=NN(c3ccc(Cl)cc3Cl)C(=O)C2)cc1 , give the reported pIC50.
4.29

For the molecule shown here, COc1ccc(C2=NN(c3cc(Cl)ccc3Cl)C(=O)C2)cc1 , give the reported pIC50.
4.92

For the molecule shown here, COc1ccc(C2=NN(c3ccc(Cl)cc3Cl)C(=O)C2)cc1OC , give the reported pIC50.
6.71

For the molecule shown here, O=C1CC(c2ccc([N+](=O)[O-])cc2)=NN1c1ccc(Cl)cc1Cl , give the reported pIC50.
4.37

For the molecule shown here, COc1ccc(C2=NN(c3ccccn3)C(=O)C2)cc1 , give the reported pIC50.
7.77

For the molecule shown here, O=C1CC(c2ccccc2)=NN1c1ccc(Cl)cc1Cl , give the reported pIC50.
5.05

For the molecule shown here, COc1ccccc1C1=NN(c2ccccn2)C(=O)C1 , give the reported pIC50.
8.15
